Here the recorded IC50 is given for each entry.
System: L6
Measurement Description: Cytotoxicity against rat L6 cells after 72 hrs by alamar blue assay
Assay type: cell-based
Condition Info: L6, 72 h
Number only, in µM; omit the unit.

Request: Item O=C(NCCCn1cnc([N+](=O)[O-])n1)c1cc2ccccc2s1 has what recorded IC50?
Result: 124

Request: Next record, please: Cc1nc([N+](=O)[O-])cn1CCCNC(=O)c1sc2ccccc2c1Cl
Result: 189

Request: Next record, please: O=[N+]([O-])c1ncn(CCCNS(=O)(=O)c2cc(Cl)sc2Cl)n1
Result: 119

Request: Next record, please: Cc1nc([N+](=O)[O-])cn1CCCNS(=O)(=O)c1ccc(Cl)s1
Result: 261

====

Measurement Description: Selectivity index, ratio of IC50 for rat L6 cells to IC50 for trypomastigote forms of Trypanosoma cruzi Tulahuen C2C4 infected in rat L6 cells
Format: toxicity, cell-based
Condition Info: read-out: Ratio IC50
Could you please classify the records by selectivity ratio using these ranges: 1: < 20; 2: ≥ 20 and < 400; 3: ≥ 400

O=[N+]([O-])c1nccn1CCCNS(=O)(=O)c1cc(Cl)sc1Cl | 1
O=C(NCCCn1cnc([N+](=O)[O-])n1)c1cc2ccccc2s1 | 3
O=C(NCCCCn1cnc([N+](=O)[O-])n1)c1sc2ccccc2c1Cl | 3
O=[N+]([O-])c1nccn1CCCNS(=O)(=O)c1cc(Cl)c(Cl)s1 | 1
Cc1nc([N+](=O)[O-])cn1CCCNS(=O)(=O)c1ccc(Cl)s1 | 1
O=[N+]([O-])c1ncn(CCCNS(=O)(=O)c2ccc(Cl)s2)n1 | 3
O=C(NCCCCn1cnc([N+](=O)[O-])n1)c1nc2ccccc2s1 | 2
O=[N+]([O-])c1ncn(CCCNS(=O)(=O)c2cc(Cl)sc2Cl)n1 | 2
Cc1nc([N+](=O)[O-])cn1CCCNC(=O)c1sc2ccccc2c1Cl | 1
Cc1csc(C(=O)NCCCn2cnc([N+](=O)[O-])n2)c1 | 2

Request: Form field 'band' for O=[N+]([O-])c1ncn(CCCNS(=O)(=O)c2cc(Cl)c(Cl)s2)n1
Result: 3

Request: Next record, please: O=[N+]([O-])c1ncn(CCCCNS(=O)(=O)c2ccc(Cl)s2)n1
Result: 2

Request: Next record, please: O=[N+]([O-])c1ncn(CCCCNS(=O)(=O)c2cc(Cl)c(Cl)s2)n1
Result: 2

====

Here the recorded selectivity ratio is given for each entry.
Measurement Description: Selectivity index, ratio of IC50 for rat L6 cells to IC50 for bloodstream forms of Trypanosoma brucei rhodesiense STIB 900
Format: toxicity, cell-based
Condition Info: read-out: Ratio IC50
Reply with just the number.

O=[N+]([O-])c1ncn(CCCCNS(=O)(=O)c2cc(Cl)c(Cl)s2)n1 | 447

For the next question, use this molecule.
Request: Item Cc1nc([N+](=O)[O-])cn1CCCNC(=O)c1nc2ccccc2s1 has what recorded selectivity ratio?
Result: 2

====

Measurement Description: Selectivity index, ratio of IC50 for rat L6 cells to IC50 for bloodstream forms of Trypanosoma brucei rhodesiense STIB 900
Assay type: toxicity, cell-based
Condition Info: read-out: Ratio IC50
selectivity ratio below 80 gives Not fulfilled; selectivity ratio at or above it gives Fulfilled.

The following compounds have reported results that may help.
Cc1nc([N+](=O)[O-])cn1CCCNC(=O)c1sc2ccccc2c1Cl | Not fulfilled
O=C(NCCCCn1cnc([N+](=O)[O-])n1)c1sc2ccccc2c1Cl | Fulfilled

Request: Could you please find out whether O=C(NCCCn1cnc([N+](=O)[O-])n1)c1cc2ccccc2s1 has selectivity ratio that meets 80 or exceeds it?
Result: Fulfilled

Request: Next record, please: O=C(NCCCn1cnc([N+](=O)[O-])n1)c1ccsc1
Result: Fulfilled

Request: Next record, please: O=[N+]([O-])c1nccn1CCCNS(=O)(=O)c1cc(Cl)c(Cl)s1
Result: Not fulfilled

Numbers sourced from ChEMBL document CHEMBL3351635.
